# Test system: uterine horns from wild-type (WT) C57BL/6J female mice
# testSummary: Oxytocin-induced uterine contractility after progestin pretreatment, isolated uterine horns in tissue organ bath
# conditionInfo: maximal oxytocin dose (100 nmol/L)
outcomeMeasure: Oxytocin-induced contraction frequency compared to control (in words)

* CC(=O)[C@H]1[C@H](O)C[C@H]2[C@@H]3CCC4=CC(=O)CC[C@]4(C)[C@H]3CC[C@@]21C | decreased significantly
* CCCCCC(=O)O[C@]1(C(C)=O)CC[C@H]2[C@@H]3CCC4=CC(=O)CC[C@]4(C)[C@H]3CC[C@@]21C [17-OHPC, 4-pregnen-17-ol-3,20-dione caproate, reference compound] | decreased significantly
* CC(=O)[C@H]1CC[C@H]2[C@@H]3CCC4=CC(=O)[C@H](O)C[C@]4(C)[C@H]3CC[C@]12C | not
* CC(=O)[C@H]1CC[C@H]2[C@@H]3CCC4=CC(=O)CC[C@]4(C)[C@H]3CC[C@]12C | decreased significantly
* CC(=O)[C@H]1CC[C@H]2[C@@H]3C[C@@H](O)C4=CC(=O)CC[C@]4(C)[C@H]3CC[C@]12C | decreased significantly

---

# System: uterine horns from wild-type (WT) C57BL/6J female mice
# testSummary: Oxytocin-induced uterine contractility after progestin pretreatment, isolated uterine horns in tissue organ bath
# conditionInfo: oxytocin-induced dose-response (1-100 nmol/L oxytocin) after progestin pretreatment 10^-6 mol/L; read-out: Contractile Frequency EC50
pEC50: −log10 of the molar value.
Catalogue of pEC50 readings, one per entry.
outcomeMeasure: pEC50

* CC(=O)[C@H]1CC[C@H]2[C@@H]3C[C@@H](O)C4=CC(=O)CC[C@]4(C)[C@H]3CC[C@]12C | 7.89
* CC(=O)[C@H]1CC[C@H]2[C@@H]3CCC4=CC(=O)[C@H](O)C[C@]4(C)[C@H]3CC[C@]12C | 6.19
* CC(=O)[C@H]1[C@H](O)C[C@H]2[C@@H]3CCC4=CC(=O)CC[C@]4(C)[C@H]3CC[C@@]21C | 8.07

---

# Test system: uterine horns from wild-type (WT) C57BL/6J female mice
# testSummary: Oxytocin-induced uterine contractility after progestin pretreatment, isolated uterine horns in tissue organ bath
# conditionInfo: oxytocin-induced; progestin pretreatment 10^-6 mol/L; maximal oxytocin dose (100 nmol/L)
outcomeMeasure: Contractile Frequency/10 min (% of baseline), Drug

* CC(=O)[C@H]1[C@H](O)C[C@H]2[C@@H]3CCC4=CC(=O)CC[C@]4(C)[C@H]3CC[C@@]21C | 216.9% of baseline
* CC(=O)[C@H]1CC[C@H]2[C@@H]3C[C@@H](O)C4=CC(=O)CC[C@]4(C)[C@H]3CC[C@]12C | 196.1% of baseline
* CC(=O)[C@H]1CC[C@H]2[C@@H]3CCC4=CC(=O)[C@H](O)C[C@]4(C)[C@H]3CC[C@]12C | 168.9% of baseline
* CC(=O)[C@H]1CC[C@H]2[C@@H]3CCC4=CC(=O)CC[C@]4(C)[C@H]3CC[C@]12C | 141% of baseline
